# test: Pharmacokinetics / bioavailability in rats
# Type: in vivo
# conditions used: rat, in vivo, po, 10 mg/kg, pH 4.7, rats; p.o., solution (PEG300/acetate buffer pH 4.7 1:1) [10 mg/kg]
Where a name gives a salt, the structure may show the parent alone.
measured quantity: AUC(0-inf) (µM·h)
Kindly provide the numeric value in µM·h only, without the unit symbol.

Give recorded AUC(0-inf). CCN1CCN(c2ccc(Nc3cc(N(C)C(=O)Nc4c(Cl)c(OC)cc(OC)c4Cl)ncn3)cc2)CC1 [Phosphate salt (form A)]
2.52

---

# test: Pharmacokinetics / bioavailability in rats
# Type: in vivo
# conditions used: rat, in vivo, po, 10 mg/kg, rats, colloidal solution (water, ethanol and cremophor EL) [10 mg/kg]
measured quantity: Tmax
Give the figure together with its unit, number first.

Give recorded Tmax. CCN1CCN(c2ccc(Nc3cc(N(C)C(=O)Nc4c(Cl)c(OC)cc(OC)c4Cl)ncn3)cc2)CC1 [Free Base]
3 h

---

# test: Pharmacokinetics / bioavailability in rats
# Type: in vivo
# conditions used: rat, in vivo, iv; rats; i.v. [5 mg/kg]
measured quantity: clearance (mL/min/kg)
Kindly provide the numeric value in mL/min/kg only, without the unit symbol.

Give recorded clearance. CCN1CCN(c2ccc(Nc3cc(N(C)C(=O)Nc4c(Cl)c(OC)cc(OC)c4Cl)ncn3)cc2)CC1 [Free Base]
60

---

# test: Pharmacokinetics / bioavailability in rats
# Format: in vivo
# conditions used: rat, in vivo, po, 8.57 mg/kg, rats; free base p.o., suspension (water containing 0.5% HPMC) [8.57 mg/kg]; read-out: Cmax [μmol/L ± SE]
measured quantity: Cmax (µmol/L)
Kindly provide the numeric value in µmol/L only, without the unit symbol.

Give recorded Cmax. CCN1CCN(c2ccc(Nc3cc(N(C)C(=O)Nc4c(Cl)c(OC)cc(OC)c4Cl)ncn3)cc2)CC1 [Free Base]
0.202

---

# test: Pharmacokinetics / bioavailability in rats
# Type: in vivo
# conditions used: rat, in vivo, po, 10 mg/kg, pH 4.7, rats; p.o., solution (PEG300/acetate buffer pH 4.7 1:1) [10 mg/kg]; read-out: Cmax [μmol/L ± SE]
Structures can show the parent of a compound that is named as a salt.
measured quantity: Cmax (µmol/L)
Kindly provide the numeric value in µmol/L only, without the unit symbol.

Give recorded Cmax. CCN1CCN(c2ccc(Nc3cc(N(C)C(=O)Nc4c(Cl)c(OC)cc(OC)c4Cl)ncn3)cc2)CC1 [Phosphate salt (form A)]
0.263

---

# test: Determination of solubility (equilibration in solvent, filtrate by HPLC)
# Format: physicochemical
# conditions used: pH 1 HCl, 25 °C, pH 1, simulated gastric fluid, thermodynamic from solid, pH 1 HCl; read-out: Solubility in mg/ml after 24 h
measured quantity: solubility at 24 h (mg/mL)
Kindly provide the numeric value in mg/mL only, without the unit symbol.

Give recorded solubility at 24 h. CCN1CCN(c2ccc(Nc3cc(N(C)C(=O)Nc4c(Cl)c(OC)cc(OC)c4Cl)ncn3)cc2)CC1 [Free Base]
0.052

---

# test: Pharmacokinetics / bioavailability in rats
# Format: in vivo
# conditions used: rat, in vivo, iv, 5 mg/kg, rats; i.v. [5 mg/kg]; read-out: C5 min [μmol/L ± SE]
measured quantity: concentration at 5 min

Give recorded concentration at 5 min. CCN1CCN(c2ccc(Nc3cc(N(C)C(=O)Nc4c(Cl)c(OC)cc(OC)c4Cl)ncn3)cc2)CC1 [Free Base]
0.972 µmol/L

Entry source: patent US9067896B2
